conditions: in isobutanol, 298.15 K
Quantity: solubility (mole fraction)
Output spec: single numeric token, no unit.

Per the record, CC(=O)N[C@@H](CC(C)C)C(=O)O has solubility (mole fraction) of 0.0242

###

conditions: in methanol, 318.15 K
Quantity: solubility (mole fraction)
Output spec: single numeric token, no unit.

Per the record, CC(=O)N[C@@H](CC(C)C)C(=O)O has solubility (mole fraction) of 0.0729

###

conditions: in n-butanol, 318.15 K
Quantity: solubility (mole fraction)
Output spec: single numeric token, no unit.

Per the record, CC(=O)N[C@@H](CC(C)C)C(=O)O has solubility (mole fraction) of 0.0429
